Reported MIC values for the following compounds.
- System: Pseudomonas aeruginosa MB-3833
- Assay text: Minimum Inhibitory Concentration (MIC), antibacterial spectrum in vitro
- Assay type: cell-based
- Experimental conditions: MB3833; Pseudomonas aeruginosa MB-3833; read-out: Minimum Inhibitory Concentration (MIC)
Structures can show the parent of a compound that is named as a salt.
Just the number please, in µg/mL, no unit attached.

The following compounds have reported results that may help.
>  <Compound>
CCN1CCN(C(=O)NC(C(=O)NC2C(=O)N3C(C(=O)[O-])=C(CSc4cc[n+](C)cc4)COC23)c2csc(N)n2)C(=O)C1=O (racemic) [Compound 20, (Sodium Salt)]

>  <Target of assay>
Pseudomonas aeruginosa MB-3833

>  <Units of measure>
µg/mL

>  <MIC>
100

$$$$
>  <Compound>
CCON=C(C(=O)NC1C(=O)N2C(C(=O)[O-])=C(CSc3cc[n+](CC(=O)O)cc3)COC12)c1csc(N)n1 (stereo not drawn) [Compound 12, (Sodium Salt)]

>  <Target of assay>
Pseudomonas aeruginosa MB-3833

>  <Units of measure>
µg/mL

>  <MIC>
12.5

$$$$
>  <Compound>
CC1OC2C(NC(=O)C(=NOC(C)(C)C(=O)O)c3csc(N)n3)C(=O)N2C(C(=O)[O-])=C1CSc1cc[n+](C)cc1 (stereo not drawn) [Compound 1, (Sodium Salt)]

>  <Target of assay>
Pseudomonas aeruginosa MB-3833

>  <Units of measure>
µg/mL

>  <MIC>
3.13

$$$$
>  <Compound>
CON=C(C(=O)NC1C(=O)N2C(C(=O)[O-])=C(CSc3cc[n+](C)cc3)COC12)c1csc(N)n1 (stereo not drawn)

>  <Target of assay>
Pseudomonas aeruginosa MB-3833

>  <Units of measure>
µg/mL

>  <MIC>
6.25

$$$$
>  <Compound>
CC(C)(ON=C(C(=O)NC1C(=O)N2C(C(=O)[O-])=C(CSc3cc[n+](CC(F)(F)F)cc3)COC12)c1csc(N)n1)C(=O)O (stereo not drawn) [Compound 16, (Sodium Salt)]

>  <Target of assay>
Pseudomonas aeruginosa MB-3833

>  <Units of measure>
µg/mL

>  <MIC>
1.56

$$$$
>  <Compound>
CC[n+]1ccc(SCC2=C(C(=O)[O-])N3C(=O)C(NC(=O)C(=NOC(C)(C)C(=O)O)c4csc(N)n4)C3OC2C)cc1 (stereo not drawn) [Compound 2, (Sodium Salt)]

>  <Target of assay>
Pseudomonas aeruginosa MB-3833

>  <Units of measure>
µg/mL

>  <MIC>
3.13

$$$$
>  <Compound>
CON=C(C(=O)NC1C(=O)N2C(C(=O)[O-])=C(CSc3cc[n+](CC(=O)O)cc3)C(C)OC12)c1csc(N)n1 (stereo not drawn) [Compound 7, (Sodium Salt)]

>  <Target of assay>
Pseudomonas aeruginosa MB-3833

>  <Units of measure>
µg/mL

>  <MIC>
12.5

$$$$
>  <Compound>
CC1OC2C(NC(=O)C(=NOC(C)(C)C(=O)O)c3csc(N)n3)C(=O)N2C(C(=O)[O-])=C1CSc1cc[n+](C(CF)CF)cc1 (stereo not drawn) [Compound 17, (Sodium Salt)]

>  <Target of assay>
Pseudomonas aeruginosa MB-3833

>  <Units of measure>
µg/mL

>  <MIC>
1.56

$$$$
>  <Compound>
CC(C)(ON=C(C(=O)NC1C(=O)N2C(C(=O)[O-])=C(CSc3cc[n+](CCF)cc3)COC12)c1csc(N)n1)C(=O)O (stereo not drawn)

>  <Target of assay>
Pseudomonas aeruginosa MB-3833

>  <Units of measure>
µg/mL

>  <MIC>
3.13

$$$$
>  <Compound>
CC1OC2C(NC(=O)C(=NOC(C)(C)C(=O)O)c3csc(N)n3)C(=O)N2C(C(=O)[O-])=C1CSc1cc[n+](CCF)cc1 (stereo not drawn) [Compound 3, (Sodium Salt)]

>  <Target of assay>
Pseudomonas aeruginosa MB-3833

>  <Units of measure>
µg/mL

>  <MIC>
1.56

$$$$

[in] Fill in: MIC of CON=C(C(=O)NC1C(=O)N2C(C(=O)[O-])=C(CSc3cc[n+](CC(=O)O)cc3)COC12)c1csc(N)n1 (stereo not drawn) [Compound 11, (Sodium Salt)] is ___
[out] 25

[in] How about CC1OC2C(NC(=O)C(=NOC(C)(C)C(=O)O)c3csc(N)n3)C(=O)N2C(C(=O)[O-])=C1CSc1cc[n+](CC(=O)O)cc1 (stereo not drawn) [Compound 5, (Sodium Salt)] ?
[out] 3.13

[in] How about C[n+]1ccc(SCC2=C(C(=O)[O-])N3C(=O)C(NC(=O)C(=NOC(C)(C)C(=O)O)c4csc(N)n4)C3OC2)cc1 (stereo not drawn) [Compound 14, (Sodium Salt)] ?
[out] 1.56

[in] How about CO[C@@]1(NC(=O)C(C(=O)O)c2ccc(O)cc2)C(=O)N2C(C(=O)O)=C(CSc3nnnn3C)CO[C@@H]21 (stereo partly drawn) [Latamoxef, reference compound] ?
[out] 6.25

* * *

- Assay text: Concentration in Blood Serum after subcutaneous dosing (bioassay using Escherichia coli)
- Format: in vivo
- Experimental conditions: mouse, sc, 1 hour, 25 mg/Kg subcutaneously, mice
Structures can show the parent of a compound that is named as a salt.
Reported endpoint: concentration at 1 h (µg/mL)
Just the number please, in µg/mL, no unit attached.

>  <Compound>
CC(C)(O/N=C(\C(=O)N[C@@H]1C(=O)N2C(C(=O)[O-])=C(C[n+]3ccccc3)CS[C@H]12)c1csc(N)n1)C(=O)O [Ceftazidime, reference compound]

>  <concentration at 1 h, µg/mL>
6.3

$$$$

[in] Fill in: concentration at 1 h of CC(C)(ON=C(C(=O)NC1C(=O)N2C(C(=O)[O-])=C(CSc3cc[n+](CC(F)(F)F)cc3)COC12)c1csc(N)n1)C(=O)O (centres unmarked) [Compound 16, (Sodium Salt)] is ___
[out] 2.4

[in] How about CC1OC2C(NC(=O)C(=NOCC(=O)O)c3csc(N)n3)C(=O)N2C(C(=O)[O-])=C1CSc1cc[n+](CC(=O)O)cc1 (centres unmarked) [Compound 9, (Sodium Salt)] ?
[out] 5.1

[in] How about C[n+]1ccc(SCC2=C(C(=O)[O-])N3C(=O)C(NC(=O)C(=NOC(C)(C)C(=O)O)c4csc(N)n4)C3OC2)cc1 (centres unmarked) [Compound 14, (Sodium Salt)] ?
[out] 5

[in] How about CC1OC2C(NC(=O)C(=NOC(C)(C)C(=O)O)c3csc(N)n3)C(=O)N2C(C(=O)[O-])=C1CSc1cc[n+](C)cc1 (centres unmarked) [Compound 1, (Sodium Salt)] ?
[out] 2.2

* * *

Reported MIC values for the following compounds.
- Tested on: Staphylococcus aureus 209 P JC-1
- Assay text: Minimum Inhibitory Concentration (MIC), antibacterial spectrum in vitro
- Format: cell-based
- Experimental conditions: 209PJC1; Staphylococcus aureus 209 P JC-1; read-out: Minimum Inhibitory Concentration (MIC)
Where a name gives a salt, the structure may show the parent alone.
Just the number please, in µg/mL, no unit attached.

>  <Compound>
CON=C(C(=O)NC1C(=O)N2C(C(=O)[O-])=C(CSc3cc[n+](CC(F)(F)F)cc3)C(C)OC12)c1csc(N)n1 (stereo not drawn)

>  <Units of measure>
µg/mL

>  <MIC>
0.2

$$$$
>  <Compound>
CC1OC2C(NC(=O)C(=NOC(C)(C)C(=O)O)c3csc(N)n3)C(=O)N2C(C(=O)[O-])=C1CSc1cc[n+](CCF)cc1 (stereo not drawn) [Compound 3, (Sodium Salt)]

>  <Units of measure>
µg/mL

>  <MIC>
0.78

$$$$
>  <Compound>
CC1OC2C(NC(=O)C(=NOCC(=O)O)c3csc(N)n3)C(=O)N2C(C(=O)[O-])=C1CSc1cc[n+](CCF)cc1 (stereo not drawn) [Compound 19, (Sodium Salt)]

>  <Units of measure>
µg/mL

>  <MIC>
3.13

$$$$
>  <Compound>
CC1OC2C(NC(=O)C(=NOC(C)(C)C(=O)O)c3csc(N)n3)C(=O)N2C(C(=O)[O-])=C1CSc1cc[n+](C(CF)CF)cc1 (stereo not drawn) [Compound 17, (Sodium Salt)]

>  <Units of measure>
µg/mL

>  <MIC>
0.78

$$$$
>  <Compound>
CC[n+]1ccc(SCC2=C(C(=O)[O-])N3C(=O)C(NC(=O)C(=NOC(C)(C)C(=O)O)c4csc(N)n4)C3OC2C)cc1 (stereo not drawn) [Compound 2, (Sodium Salt)]

>  <Units of measure>
µg/mL

>  <MIC>
0.78

$$$$
>  <Compound>
CC1OC2C(NC(=O)C(=NOCC(=O)O)c3csc(N)n3)C(=O)N2C(C(=O)[O-])=C1CSc1cc[n+](CC(=O)O)cc1 (stereo not drawn) [Compound 9, (Sodium Salt)]

>  <Units of measure>
µg/mL

>  <MIC>
6.25

$$$$
>  <Compound>
CON=C(C(=O)NC1C(=O)N2C(C(=O)[O-])=C(CSc3cc[n+](C)cc3)COC12)c1csc(N)n1 (stereo not drawn)

>  <Units of measure>
µg/mL

>  <MIC>
0.1

$$$$
>  <Compound>
CON=C(C(=O)NC1C(=O)N2C(C(=O)[O-])=C(CSc3cc[n+](CC(=O)O)cc3)COC12)c1csc(N)n1 (stereo not drawn) [Compound 11, (Sodium Salt)]

>  <Units of measure>
µg/mL

>  <MIC>
0.39

$$$$

[in] Enter reported MIC observed with Staphylococcus aureus 209 P JC-1 for CON=C(C(=O)NC1C(=O)N2C(C(=O)[O-])=C(CSc3cc[n+](CC(=O)O)cc3)C(C)OC12)c1csc(N)n1 (stereo not drawn) [Compound 7, (Sodium Salt)]
[out] 0.39
